test system: phospho-Akt (Ser473); test: Cellular PI3K/Akt pathway assay (phospho-Akt ELISA); format: cell-based; conditions: Homo sapiens, MCF7 cells, β-Heregulin stimulated, 48 h incubation
assay metric: IC50

INSERT INTO results (molecule, assay_metric, observed) VALUES
  ('CC(c1ccc(-c2nc3nccn3cc2-c2ccccc2)cc1)N1CCC(c2n[nH]c(-c3ccccn3)n2)CC1 (racemic)', 'IC50', '< 1000 nM'),
  ('C#Cc1cnn2cc(-c3ccccc3)c(-c3ccc(CN4CCC(c5n[nH]c(-c6ccccn6)n5)CC4)cc3)nc12', 'IC50', '< 1000 nM'),
  ('Cc1c(-c2ccccc2)c(-c2ccc(CN3CCC(c4n[nH]c(-c5ccccn5)n4)CC3)cc2)nc2nccn12', 'IC50', '> 10000 nM'),
  ('Cc1nc2nc(-c3ccc(CN4CCC(c5n[nH]c(-c6ccccn6)n5)CC4)cc3)c(-c3ccccc3)c(C)n2n1', 'IC50', '< 1000 nM'),
  ('c1ccc(-c2nc(C3CCN(Cc4ccc(-c5nc6ccnn6cc5-c5ccsc5)cc4)CC3)n[nH]2)nc1', 'IC50', '< 1000 nM'),
  ('Cc1cccc(-c2nc(C3CCN(Cc4ccc(-c5nc6nccn6cc5-c5ccccc5)cc4)CC3)n[nH]2)n1', 'IC50', '< 1000 nM');
